Data provenance: patent US11220504B2

Can you tell me TLR8 LEC for the items I'm about to list?
Biological target: human TLR8 (Homo sapiens)
Construct: expressed in transfected cells; host or cells: HEK293 cells, transient transfection with TLR8 plasmid and NFκB-luc plasmid
Sequence (Q9NR97 27-1041): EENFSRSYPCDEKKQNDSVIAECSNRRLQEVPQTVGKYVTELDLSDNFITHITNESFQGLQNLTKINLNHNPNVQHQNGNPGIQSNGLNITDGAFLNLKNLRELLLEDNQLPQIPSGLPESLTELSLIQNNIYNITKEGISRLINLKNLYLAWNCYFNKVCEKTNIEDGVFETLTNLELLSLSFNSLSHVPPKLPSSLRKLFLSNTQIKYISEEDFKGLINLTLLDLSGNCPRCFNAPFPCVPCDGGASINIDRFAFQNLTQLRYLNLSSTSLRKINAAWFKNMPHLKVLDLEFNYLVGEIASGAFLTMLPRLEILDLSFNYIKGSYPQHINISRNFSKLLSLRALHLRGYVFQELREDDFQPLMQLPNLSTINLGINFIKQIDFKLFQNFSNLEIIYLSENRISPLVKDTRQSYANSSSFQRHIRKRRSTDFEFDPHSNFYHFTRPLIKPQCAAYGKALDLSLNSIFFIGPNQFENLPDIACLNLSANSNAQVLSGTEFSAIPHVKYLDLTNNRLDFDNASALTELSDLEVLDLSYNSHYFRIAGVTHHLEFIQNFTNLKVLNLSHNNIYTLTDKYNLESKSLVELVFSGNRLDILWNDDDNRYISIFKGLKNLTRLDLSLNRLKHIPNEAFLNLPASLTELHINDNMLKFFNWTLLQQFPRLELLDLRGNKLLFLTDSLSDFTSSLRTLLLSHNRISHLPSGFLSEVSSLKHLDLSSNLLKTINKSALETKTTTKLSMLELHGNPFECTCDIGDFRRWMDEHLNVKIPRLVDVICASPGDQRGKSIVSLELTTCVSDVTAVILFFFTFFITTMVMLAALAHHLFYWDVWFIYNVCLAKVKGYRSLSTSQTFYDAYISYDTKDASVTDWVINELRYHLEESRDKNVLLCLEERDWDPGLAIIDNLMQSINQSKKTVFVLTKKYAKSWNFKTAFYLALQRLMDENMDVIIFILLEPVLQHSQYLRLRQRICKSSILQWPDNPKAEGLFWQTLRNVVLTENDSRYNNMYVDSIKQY
Assay: TLR8 cellular reporter assay (HEK293, NFκB-luc)
Format: cell-based
Details: HEK293 cells transfected with CMV-TLR8 and NFκB-luc, 6 hours incubation; lowest effective concentration

Find the recorded TLR8 LEC belonging to CCC(O)CNc1nc(N)nc2ccn(Cc3ccccn3)c12 (centres unmarked) [Compound 141] and report it.
>25 µM

Find the recorded TLR8 LEC belonging to Cn1ccc(CNc2nc(N)nc3ccn(Cc4ccccc4)c23)n1 [Compound 49] and report it.
>25 µM

Find the recorded TLR8 LEC belonging to Cc1cc(CNc2nc(N)nc3ccn(Cc4ccc5cccnc5n4)c23)no1 [Compound 183] and report it.
>25 µM

Find the recorded TLR8 LEC belonging to Cc1cccc(Cn2ccc3nc(N)nc(NCc4cc(C)on4)c32)n1 [Compound 90] and report it.
>25 µM

Find the recorded TLR8 LEC belonging to CCCCNc1nc(N)nc2ccn(CC3CCC3)c12 [Compound 62] and report it.
0.9934 µM

###

biological target: human TLR8 (Homo sapiens); construct: expressed in transfected cells; host or cells: HEK293 cells, transient transfection with TLR8 plasmid and NFκB-luc plasmid; assay: TLR8 cellular reporter assay (HEK293, NFκB-luc); assay type: cell-based; conditions: HEK293 cells transfected with CMV-TLR8 and NFκB-luc, 6 hours incubation; lowest effective concentration
Can you tell me TLR8 LEC for the items I'm about to list?

Find the recorded TLR8 LEC belonging to CCCCNc1nc(N)nc2ccn(CCN3CCOCC3)c12 and report it.
6.71 µM

Find the recorded TLR8 LEC belonging to CCC[C@@H](CCO)Nc1nc(N)nc2ccn(CC(C)C)c12 and report it.
0.67 µM

Find the recorded TLR8 LEC belonging to C[C@H](Nc1nc(N)nc2ccn(Cc3ccccn3)c12)c1ccccn1 (single isomer, unassigned) and report it.
>25 µM

Find the recorded TLR8 LEC belonging to CCCCNc1nc(N)nc2ccn(Cc3ccccc3Oc3ccccc3)c12 and report it.
>25 µM

Find the recorded TLR8 LEC belonging to COCCn1ccc2nc(N)nc(NCc3cc(C(C)C)on3)c21 and report it.
23.5 µM

Find the recorded TLR8 LEC belonging to CCOc1ccccc1Cn1ccc2nc(N)nc(NCCOC)c21 and report it.
>25 µM

Find the recorded TLR8 LEC belonging to Cc1cc(CNc2nc(N)nc3ccn(Cc4cccc(CN5CCCC5)c4)c23)no1 and report it.
>25 µM

Find the recorded TLR8 LEC belonging to COCCNc1nc(N)nc2ccn(Cc3ccccn3)c12 and report it.
>25 µM

Find the recorded TLR8 LEC belonging to COCCNc1nc(N)nc2ccn(C[C@H]3CCCO3)c12 and report it.
>25 µM

Find the recorded TLR8 LEC belonging to Cc1cc(CNc2nc(N)nc3ccn(Cc4csc(C)n4)c23)no1 and report it.
>25 µM

Find the recorded TLR8 LEC belonging to Cc1ccc(CNc2nc(N)nc3ccn(Cc4ccccn4)c23)nc1 and report it.
>25 µM

Find the recorded TLR8 LEC belonging to CCC[C@@H](CO)Nc1nc(N)nc2ccn(CC(C)C)c12 and report it.
0.85 µM

Find the recorded TLR8 LEC belonging to CC(CNc1nc(N)nc2ccn(Cc3ccccc3)c12)C1CC1 (stereo not shown) and report it.
>25 µM

Find the recorded TLR8 LEC belonging to CCCC[C@@H](CCO)Nc1nc(N)nc2ccn(Cc3c(OC)cccc3OC)c12 and report it.
0.1 µM

Find the recorded TLR8 LEC belonging to COC[C@H](C)Nc1nc(N)nc2ccn(Cc3ccccn3)c12 and report it.
22 µM

Find the recorded TLR8 LEC belonging to CCC[C@H](CO)Nc1nc(N)nc2ccn(Cc3ccccc3)c12 and report it.
>25 µM

Find the recorded TLR8 LEC belonging to Nc1nc(NCc2nccs2)c2c(ccn2Cc2ccccc2)n1 and report it.
>25 µM

Find the recorded TLR8 LEC belonging to COCCn1ccc2nc(N)nc(N[C@@H](C)c3ccccn3)c21 (single isomer, unassigned) and report it.
>25 µM

Find the recorded TLR8 LEC belonging to COc1cccnc1Cn1ccc2nc(N)nc(NCc3cc(C)on3)c21 and report it.
>25 µM
